System: Enterobacter aerogenes (Ea)
Assay: MIC against bacteria (nutrient agar)
Type: cell-based, Enterobacter aerogenes ATCC 13048
Settings: Klebsiella aerogenes; pH 8.2, nutrient agar, 30° C., 48 h; read-out: Minimum Inhibitory Concentration, Ea
Can you tell me MIC for the items I'm about to list?
Note: unit µg/mL is implicit; provide only the numeric part.

Q. Please indicate MIC recorded for N#CSCOc1nsnc1-c1cccc(Cl)c1 [II]
A. 500

Q. Please indicate MIC recorded for N#CSCOc1nsnc1-c1ccccc1 [Example I]
A. 500

Q. Please indicate MIC recorded for N#CSCOc1nsnc1-c1cccc(F)c1 [III]
A. 500

Q. Please indicate MIC recorded for N#CSCOc1nsnc1-c1ccc(F)cc1 [IV]
A. 500

====

Can you tell me MIC for the items I'm about to list?
System: Proteus vulgaris (PV)
Assay: MIC against bacteria (nutrient agar)
Assay type: cell-based, Proteus vulgaris ATCC 881
Conditions: pH 6.8, nutrient agar, 30° C., 48 h, read-out: Minimum Inhibitory Concentration, Pv

Q. Please indicate MIC recorded for N#CSCOc1nsnc1-c1cccc(Cl)c1
A. > 500 µg/mL

Q. Please indicate MIC recorded for N#CSCOc1nsnc1-c1ccccc1
A. > 500 µg/mL

Q. Please indicate MIC recorded for N#CSCOc1nsnc1-c1ccc(F)cc1
A. > 500 µg/mL

Q. Please indicate MIC recorded for N#CSCOc1nsnc1-c1cccc(F)c1
A. > 500 µg/mL

====

Can you tell me MIC for the items I'm about to list?

Q. Supply MIC measured with Saccharomyces cerevisiae (Sc) for N#CSCOc1nsnc1-c1ccc(F)cc1 [IV] .
A. 2.5 µg/mL

Q. Supply MIC measured with Saccharomyces cerevisiae (Sc) for N#CSCOc1nsnc1-c1cccc(Cl)c1 [II] .
A. < 1 µg/mL

Q. Supply MIC measured with Saccharomyces cerevisiae (Sc) for N#CSCOc1nsnc1-c1cccc(F)c1 [III] .
A. < 1 µg/mL

Q. Supply MIC measured with Saccharomyces cerevisiae (Sc) for N#CSCOc1nsnc1-c1ccccc1 [Example I] .
A. 2.5 µg/mL

====

Tested on: Staphylococcus aureus (Sa)
Experiment: MIC against bacteria (nutrient agar)
Type: cell-based, Staphylococcus aureus ATCC 6538
Details: pH 6.8, nutrient agar, 30° C., 48 h, read-out: Minimum Inhibitory Concentration, Sa
attribute_measured: MIC

Q. Please indicate MIC recorded for N#CSCOc1nsnc1-c1ccc(F)cc1
A. < 10 µg/mL

Q. Please indicate MIC recorded for N#CSCOc1nsnc1-c1ccccc1
A. 25 µg/mL

Q. Please indicate MIC recorded for N#CSCOc1nsnc1-c1cccc(Cl)c1
A. < 10 µg/mL

Q. Please indicate MIC recorded for N#CSCOc1nsnc1-c1cccc(F)c1
A. < 10 µg/mL

====

attribute_measured: MIC (mg/L)
Note: unit mg/L is implicit; provide only the numeric part.

Q. Supply MIC measured with Trichoderma viride (Tv) for N#CSCOc1nsnc1-c1ccc(F)cc1 .
A. 500

Q. Supply MIC measured with Trichoderma viride (Tv) for N#CSCOc1nsnc1-c1ccccc1 .
A. 25

Q. Supply MIC measured with Trichoderma viride (Tv) for N#CSCOc1nsnc1-c1cccc(F)c1 .
A. 500

Q. Supply MIC measured with Trichoderma viride (Tv) for N#CSCOc1nsnc1-c1cccc(Cl)c1 .
A. 500
